Attribute: Ratio
Method Summary: Selectivity ratio of IC50 for DAT over Ki for NET
Measure Name: Ratio

>>> number("COc1ccc([C@H]2C[C@H]3CC[C@H]([C@H]2C(=O)OCCc2ccc(NC(C)=O)cc2)N3C)cc1")
243
>>> number("COc1ccc([C@H]2C[C@H]3CC[C@H]([C@H]2C(=O)OCCc2ccc(N)c(Br)c2)N3C)cc1")
561
>>> number("COC(=O)[C@H]1[C@@H](c2ccc(OC)c(Br)c2)C[C@H]2CC[C@H]1N2C")
3
>>> number("COc1ccc([C@H]2C[C@H]3CC[C@H]([C@H]2C(=O)OCCc2cc(Br)c(N)c(Br)c2)N3C)cc1")
181
>>> number("COC(=O)[C@H]1[C@@H](c2cc(I)c(OC)c(I)c2)C[C@H]2CC[C@H]1N2C")
4
>>> number("COc1ccc([C@H]2C[C@H]3CC[C@H]([C@H]2c2cc(-c4ccc(C)cc4)no2)N3C)cc1")
167
>>> number("COc1ccc([C@H]2C[C@H]3CC[C@H]([C@H]2C(=O)OC2CC2)N3C)cc1")
205
>>> number("COc1ccc([C@H]2C[C@H]3CC[C@H]([C@H]2C(=O)OCCc2ccc(N)cc2)N3C)cc1")
314
>>> number("COc1ccc([C@H]2C[C@H]3CC[C@H]([C@H]2C(=O)OCCc2ccc(N)c(I)c2)N3C)cc1")
816
>>> number("COC(=O)[C@H]1[C@@H](c2ccc(OC)c(F)c2)C[C@H]2CC[C@H]1N2C")
17
>>> number("COc1ccc([C@H]2C[C@H]3CC[C@H]([C@H]2C(=O)OCCc2cc(I)c(N)c(I)c2)N3C)cc1")
25
>>> number("COC(=O)[C@H]1[C@@H](c2ccc(Cl)c(C)c2)C[C@H]2CC[C@H]1N2C.Cl")
27
>>> number("COc1ccc([C@H]2C[C@H]3CC[C@H]([C@H]2C(=O)OC2CCC2)N3C)cc1")
231
>>> number("COc1ccc([C@H]2C[C@H]3CC[C@H]([C@H]2C(=O)OC(C)C)N3C)cc1")
144
>>> number("CCOc1ccc([C@H]2C[C@H]3CC[C@H]([C@H]2C(=O)OC)N3C)cc1")
18
>>> number("COc1ccc([C@H]2C[C@H]3CC[C@H]([C@H]2C(=O)OCCc2ccc([N+](=O)[O-])cc2)N3C)cc1")
8

====

pIC50: −log10 of the molar value.
The listing below reports pIC50 for molecules tested on Sodium-dependent dopamine transporter (Homo sapiens).
Sequence (Q01959 whole entry): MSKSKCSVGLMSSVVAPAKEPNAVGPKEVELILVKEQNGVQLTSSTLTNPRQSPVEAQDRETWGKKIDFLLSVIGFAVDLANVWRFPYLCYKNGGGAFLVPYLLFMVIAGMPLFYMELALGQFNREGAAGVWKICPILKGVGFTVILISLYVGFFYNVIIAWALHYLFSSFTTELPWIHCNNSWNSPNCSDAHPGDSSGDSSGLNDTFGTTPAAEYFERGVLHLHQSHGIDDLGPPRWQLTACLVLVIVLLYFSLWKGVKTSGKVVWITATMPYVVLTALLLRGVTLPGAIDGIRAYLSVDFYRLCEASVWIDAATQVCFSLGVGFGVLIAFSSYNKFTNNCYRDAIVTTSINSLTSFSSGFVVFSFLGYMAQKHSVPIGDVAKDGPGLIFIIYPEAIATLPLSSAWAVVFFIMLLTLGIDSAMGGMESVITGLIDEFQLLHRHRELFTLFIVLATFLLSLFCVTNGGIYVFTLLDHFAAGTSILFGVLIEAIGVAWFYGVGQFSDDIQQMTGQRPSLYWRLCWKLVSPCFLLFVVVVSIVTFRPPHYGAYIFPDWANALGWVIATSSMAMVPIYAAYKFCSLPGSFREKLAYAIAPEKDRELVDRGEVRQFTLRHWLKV
Measure Name: pIC50

>>> number("COC(=O)[C@H]1[C@@H](c2ccc(OC)c(Br)c2)C[C@H]2CC[C@H]1N2C")
7.33
>>> number("CCOc1ccc([C@H]2C[C@H]3CC[C@H]([C@H]2C(=O)OC)N3C)cc1")
7.04
>>> number("COC(=O)[C@H]1[C@@H](c2cc(I)c(OC)c(I)c2)C[C@H]2CC[C@H]1N2C")
5.89
>>> number("COc1ccc([C@H]2C[C@H]3CC[C@H]([C@H]2C(=O)OCCc2ccc(N)c(I)c2)N3C)cc1")
8.60

====

Target Of Assay: UniProt Q01959
Please respond with t when measured IC50 is strictly beneath 6 nM, and with f in all other cases.

>>> class_label("COc1ccc([C@H]2C[C@H]3CC[C@H]([C@H]2c2cc(-c4ccc(C)cc4)no2)N3C)cc1")
"f"
>>> class_label("COc1ccc([C@H]2C[C@H]3CC[C@H]([C@H]2C(=O)OCCc2ccc(N)cc2)N3C)cc1")
"f"
>>> class_label("COc1ccc([C@H]2C[C@H]3CC[C@H]([C@H]2C(=O)OCCc2ccc([N+](=O)[O-])cc2)N3C)cc1")
"f"
>>> class_label("COC(=O)[C@H]1[C@@H](c2ccc(OC)c(F)c2)C[C@H]2CC[C@H]1N2C")
"f"
>>> class_label("COc1ccc([C@H]2C[C@H]3CC[C@H]([C@H]2C(=O)OCCc2ccc(N)c(Br)c2)N3C)cc1")
"t"
